- Read-out: Cytochrome P450 4A22 (Homo sapiens) (UniProt Q5TCH4)
- procedure-text: LTEA_HepaRG_CYP4A22: Life Technologies and Expression Analysis (LTEA) Assay for Cytochrome P450 4A22 (CYP4A22) using HepaRG (AID 2283495)
- condition-set: mRNA level, 48 h; actives raise or lower the signal
- Procedure: LTEA_HepaRG is a cell based, multiplexed-readout assay that uses HepaRG, a human liver cell line, with measurements taken at 48 hours after chemical dosing on a 96-well plate.LTEA_HepaRG_CYP4A22 is one of 102 assay component(s) measured in the LTEA HepaRG cell culture assay. It is a marker of NR mediated metabolism.Data from the assay component LTEA_HepaRG_CYP4A22 was analyzed into 1 endpoint. […]
Calls of active or inactive are those of the source. The calls were made as follows: active = hit-call score of the fitted dose curve at least 0.9, where 1 is the maximum; inactive = score below 0.9.
Tick one outcome: y (active), n (inactive)

I'd appreciate the recorded outcome for CN(C)c1ccccc1 from this test.
n

Name the outcome recorded for CC(O)CCO (stereo unspecified) in the assay.
n

For CCCCCOC(=O)c1ccccc1C(=O)OCCCCC , which call appears in the assay record?
y

Per the assay record, what outcome was assigned to Nc1ccc([N+](=O)[O-])cc1 ?
n

What did this assay record as the result for Cc1ccc(N)c(N)c1 ?
n

What did the test return for [Cl-].[Cl-].[Hg+2] ?
n

###

- Read-out: Caspase-3 (Homo sapiens)
- procedure-text: LTEA_HepaRG_CASP3: Life Technologies and Expression Analysis (LTEA) Assay for cysteine-aspartic acid protease (CASP3) using HepaRG (AID 2283477)
- condition-set: mRNA level, 48 h; actives raise or lower the signal
Activity calls are given as the source filed them. The calls were made as follows: active = hit-call score of the fitted dose curve at least 0.9, where 1 is the maximum; inactive = score below 0.9.
Write down the outcome that applies. Available outcomes: active, inactive

Field: outcome | Entry: O=P(OCCCl)(OCCCl)OCCCl
inactive

How did this test come out for CO[C@@H]1[C@H](OC(=O)NC(=O)CCl)CC[C@]2(CO2)[C@H]1[C@@]1(C)O[C@@H]1CC=C(C)C ?
inactive

Tell me the assay call for N#CC(Br)Br please.
inactive

// return assay outcome for COP(=S)(OC)SCN1C(=O)c2ccccc2C1=O
inactive

Given [As]#[In] , state the outcome it received in this test.
inactive

Entry Clc1ccc(C(c2ccc(Cl)cc2)C(Cl)(Cl)Cl)cc1 : call = ?
inactive

What did the test return for O=[N+]([O-])C(Br)(CO)CO ?
inactive

Recorded test call requested for CC(C)(C)OOC(=O)c1ccccc1
inactive

I'd appreciate the recorded outcome for CC(C)COC(=O)c1ccccc1C(=O)OCC(C)C from this test.
inactive

Record lookup: outcome of this test for Nc1ccc([N+](=O)[O-])cc1 ?
inactive

Lab log entry: O=C1CCCO1 — outcome as called in the assay?
active

Which outcome was entered for the compound CCCCC(CC)COC(=O)c1ccc(C(=O)OCC(CC)CCCC)c(C(=O)OCC(CC)CCCC)c1 (stereo not given) in this test?
inactive

What did this assay record as the result for Cc1cc(N=Nc2ccccc2C)ccc1N ?
inactive

# fetch the recorded call for O=C(Oc1ccc(Br)cc1)N1CCN2CCC1CC2 here
inactive

GET /call?item= ClCCOCCCl returns the recorded outcome of this test.
inactive

I'd appreciate the recorded outcome for O=C(Nc1ccccc1)c1ccccc1I from this test.
inactive

Test call, this compound: ClC1=C(Cl)C2(Cl)C3C(Cl)C=CC3C1(Cl)C2(Cl)Cl (stereo not given)
inactive

Outcome? Clc1ccccc1Cl
inactive

Which result was noted for this compound in the test: CS(=O)(=O)NC(=O)c1cc(Oc2ccc(C(F)(F)F)cc2Cl)ccc1[N+](=O)[O-]
inactive

Please share the test call associated with C[C@]12C=CC3=C4CCC(=O)C=C4CC[C@H]3[C@@H]1CC[C@@H]2O .
inactive

GET /call?item= [O-][Cl+]O returns the recorded outcome of this test.
inactive

Assay result, entry Nc1ccc(Cc2ccc(N)cc2)cc1 — outcome?
inactive

Record request — test call for Clc1ccc(C(c2ccc(Cl)cc2)C(Cl)Cl)cc1
inactive

Hi, sorry to bother you, what did the test record for Cc1ccc([N+](=O)[O-])cc1 ?
inactive

Which outcome was entered for the compound O=Cc1ccco1 in this test?
inactive

###

- Read-out: Human Leukocyte Antigen - DR isotype (HLADR), HLA-DRA (gene 3122)
- procedure-text: BSK_3C_HLADR: BioMAP Diversity Plus: 3C Assay for Human Leukocyte Antigen - DR isotype (HLADR) Biomarker Activity (AID 2283019)
- condition-set: primary human endothelial cells (HUVEC); actives raise or lower the signal
The source made the active and inactive calls. Rule for the calls: active = hit-call score of the fitted dose curve at least 0.9, where 1 is the maximum; inactive = score below 0.9.
API: response.call in active, inactive

Query: recorded result category for COC(=O)c1ccccc1N in this test
inactive

Can you look up the reported call for CCC12COCN1COC2 for me?
inactive

Call for entry ClC1=C(Cl)[C@]2(Cl)[C@H]3[C@H]([C@@H]4C=C[C@H]3C4)[C@@]1(Cl)C2(Cl)Cl :
active

Dear all, I need the recorded test outcome for Cn1cc(-c2ccccc2)c(=O)c(-c2cccc(C(F)(F)F)c2)c1 , thank you.
inactive

How did this test come out for CCCCCCCCn1sccc1=O ?
active

Test call, this compound: CCN(CC)N=O
inactive

Hi, do you know how CN(C)c1ccccc1 came out in this test?
inactive

Can you look up the reported call for CCCCOC(=O)c1ccccc1C(=O)OCc1ccccc1 for me?
inactive

I would be grateful if you could indicate the recorded call for CC(C)(C)OOC(=O)c1ccccc1 .
inactive

Give the logged outcome of this assay for the following compound: Nc1cc(Cl)cc(C(=O)O)c1Cl
inactive

GET /call?item= CNC(=O)Oc1cccc2c1OC(C)(C)C2 returns the recorded outcome of this test.
inactive

Lab log entry: O=[N+]([O-])c1ccc(Oc2ccc(Cl)cc2Cl)cc1 — outcome as called in the assay?
active

Status in this test for ClCCOCCCl ?
inactive

Each compound tested received a call. Report the one for CC(C)(O)c1cnn2c(-c3ccc(F)c(-c4c(F)cccc4C#N)c3)cnc2n1 .
active

# lookup: test call for O=C(N[C@H](c1ccccc1)[C@@H]1CN2CCC1CC2)c1c(Cl)ccc(C(F)(F)F)c1Cl
inactive

How was CCCSC(=O)N(CCC)CCC classified in this test?
inactive

# fetch the recorded call for CCOc1cccc(C2(N3CCN(c4ccccc4)CC3)CCC(C)CC2)c1 (configuration not stated) here
inactive

###

- Read-out: catalase (CAT), CAT (gene 847)
- procedure-text: LTEA_HepaRG_CAT: Life Technologies and Expression Analysis (LTEA) Assay for catalase (CAT) using HepaRG (AID 2283452)
- condition-set: mRNA level, 48 h; actives raise or lower the signal
Activity calls are given as the source filed them. The calls were made as follows: active = hit-call score of the fitted dose curve at least 0.9, where 1 is the maximum; inactive = score below 0.9.
Pick one and only one: true (1) = active, false (0) = inactive

Identify the outcome logged in this assay for the molecule shown: O=Cc1ccco1
false (0)

State the result this test recorded for O=C(N[C@H](c1ccccc1)[C@@H]1CN2CCC1CC2)c1c(Cl)ccc(C(F)(F)F)c1Cl .
true (1)

Record request — test call for CNC(=O)Oc1cccc2c1OC(C)(C)C2
false (0)

Status in this test for Clc1ccc(Cl)c(Cl)c1 ?
false (0)

Check the results log: what was the call for C[C@]12C=CC3=C4CCC(=O)C=C4CC[C@H]3[C@@H]1CC[C@@H]2O ?
true (1)

# fetch the recorded call for CCCCCCCCn1sccc1=O here
true (1)

Please indicate how the test categorized CO[C@@H]1[C@H](OC(=O)NC(=O)CCl)CC[C@]2(CO2)[C@H]1[C@@]1(C)O[C@@H]1CC=C(C)C .
false (0)

###

- Read-out: CYP2C8 (gene 1558)
- procedure-text: LTEA_HepaRG_CYP2C8: Life Technologies and Expression Analysis (LTEA) Assay for CYP2C8 using HepaRG (AID 2283483)
- condition-set: mRNA level, 48 h; actives raise or lower the signal
The source made the active and inactive calls. Rule for the calls: active = hit-call score of the fitted dose curve at least 0.9, where 1 is the maximum; inactive = score below 0.9.
reported-endpoint: AC50

Some solved entries appear below for comparison.
> print(dat)
                               input.smiles  reported.endpoint            result
1  COc1cc(C=O)cc2c1[C@H](COC(N)=O)[C@]1(OC(C)=O)ON2C[C@H]2[C@@H]1N2C(C)=O               AC50   0.5 µM (active)
2            CCCCCOC(=O)c1ccccc1C(=O)OCCCCC               AC50          inactive
3            CC(C)N(Cc1ccccc1)C(=O)C(C)(C)C               AC50  10.4 µM (active)
4        Clc1ccc(C(c2ccc(Cl)cc2)C(Cl)Cl)cc1               AC50  12.7 µM (active)
5                               Oc1ccccc1Cl               AC50          inactive

Give a short answer stating reported AC50 for CC(C)COC(=O)c1ccccc1C(=O)OCC(C)C .
inactive

Look up and report measured AC50 for this entry: Cc1ccc(N)c(N)c1
inactive

Quote AC50 reported for O=P(OCCCl)(OCCCl)OCCCl please.
inactive

Name the recorded AC50 of the item CC(C)(C)OOC(C)(C)CCC(C)(C)OOC(C)(C)C in your answer.
inactive

Give recorded AC50. CCCCOC(=O)c1ccccc1C(=O)OCc1ccccc1
inactive

These data points were gathered from PubChem BioAssay (EPA / NIEHS).
